meta.source: patent US8541363B2

# Experimental Target: Der p 1 (Dermatophagoides pteronyssinus (European house dust mite), UniProt P08176)
# Sequence (P08176 99-320): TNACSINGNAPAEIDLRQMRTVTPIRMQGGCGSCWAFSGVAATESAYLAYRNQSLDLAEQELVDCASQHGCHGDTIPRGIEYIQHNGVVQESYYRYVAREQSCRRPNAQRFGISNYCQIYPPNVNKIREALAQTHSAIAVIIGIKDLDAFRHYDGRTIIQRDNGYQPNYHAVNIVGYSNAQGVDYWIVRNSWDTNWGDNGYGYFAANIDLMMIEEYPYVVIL
# Protocol Notes: Der p 1 enzyme activity assay (FRET fluorogenic substrate)
# Assay type: biochemical
# Run Conditions: threshold stated in text; read-out: Der p 1 IC50
Quantity Measured: IC50

Asked: // query IC50 value for entry CC(C)[C@H](NC(=O)[C@H](C)NC(=O)[C@@H](NC(=O)c1ccc2ncsc2c1)C(C)(C)C)C(=O)C(=O)NC1CCCCC1 [PVA-053]
Given back: < 200 nM

Asked: // query IC50 value for entry CC(C)[C@H](NC(=O)[C@H](C)NC(=O)[C@@H](NC(=O)c1ccccc1)C(C)(C)C)C(=O)C(=O)NCc1ccc(N2CCN(C)CC2)cc1 [PVA-162]
Given back: < 20 nM

Asked: // query IC50 value for entry CC(C)[C@H](NC(=O)[C@H](C)NC(=O)[C@H](Cc1ccccc1)NC(=O)c1ccccc1)C(=O)C(=O)NCc1ccc2c(c1)OCO2 [PVA-041]
Given back: < 200 nM
